The reported numbers originate from ChEMBL document CHEMBL1201862.

- Test system: SN12C
- protocol-text: NCI tumour cell line growth inhibition, 48 h
The source made the active and inactive calls. No stated cut-off is given here; in the data, active = GI50 up to about 1.1 µM and inactive = higher.
experimental-endpoint: GI50

{"columns": ["molecule", "GI50"],
 "data": [
  ["CCN(CC)CCO/N=C1\\CC[C@H]2[C@@H]3CCc4cc(OC)ccc4[C@H]3CC[C@]12C", "3.03 µM (inactive)"],
  ["C[C@@H]1CC(=O)C[C@@H]2CC[C@H]3[C@@H]4CC[C@H](OC(=O)c5cccc6cc7ccccc7nc56)[C@H]4CC[C@@H]3[C@H]21", "16.6 µM (inactive)"],
  ["CN1c2ccccc2N(C(=O)c2ccc([N+](=O)[O-])cc2)C(CC(=O)O)c2cccn21 (stereo not given)", "> 100 µM (inactive)"]
]}

GI50 recorded for this molecule, COc1cc(CC2CC(c3ccc4c(c3)OCO4)OC2=O)cc(OC)c1OC (stereo not given) , is > 100 µM (inactive)

GI50 recorded for this molecule, O=[N+]([O-])c1ccc(-n2nnc(C3=NCCN3)c2-c2ccccc2)cc1 , is > 100 µM (inactive)

* * *

- System: SK-OV-3
- protocol-text: NCI tumour cell line growth inhibition, 48 h
Activity calls are given as the source filed them. Cut-off read from the data, not from the text of the source: active = GI50 up to about 1.1 µM and inactive = higher.
Form field: GI50 (one value per entry).

Solved entries (count: 5):
{"columns": ["compound", "tested-on", "experimental-endpoint", "result"],
 "data": [
  ["CC(C)(C)c1ccc(O)c(CN(Cc2cc(C(C)(C)C)ccc2O)C2CCCCC2)c1", "SK-OV-3", "GI50", "24.4 µM (inactive)"],
  ["O=C(CCl)N1CCCCC1C1(c2cc3ccccc3[nH]2)OCCO1 (stereo not given)", "SK-OV-3", "GI50", "5.78 µM (inactive)"],
  ["COC(=O)c1c[nH]c2nc(N3CCOCC3)nn2c1=O", "SK-OV-3", "GI50", "> 100 µM (inactive)"],
  ["COc1cc(/C=C2\\C(=O)N(c3ccc(Cl)cc3)C(c3ccccc3)S2(=O)=O)cc(OC)c1OC (stereo not given)", "SK-OV-3", "GI50", "14 µM (inactive)"],
  ["COc1c2c(cc3c1C(O)N1CC[C@]34[C@H]3O[C@H]3[C@H](OC)C[C@@H]14)OCO2 (stereo not given in full)", "SK-OV-3", "GI50", "24.2 µM (inactive)"]
]}

GI50 recorded for this compound, COC(=O)c1s/c(=N\C(=S)N(C)C)n(-c2ccccc2)c1C(=O)OC , is > 100 µM (inactive)

GI50 recorded for this compound, O=C1O/C(=C\c2ccc(O)cc2)C(c2ccc(O)c(Cl)c2)=C1Br , is 14 µM (inactive)

GI50 recorded for this compound, Cc1ccc2nc(NC(=O)/C(Cc3nc4ccc(Cl)cc4nc3O)=N\NC(C)(C)C)sc2c1 , is > 100 µM (inactive)

GI50 recorded for this compound, COc1ccc2cc(C(C)C(=O)N3CCOC3=O)ccc2c1 (stereo not given) , is > 100 µM (inactive)

GI50 recorded for this compound, CCOP(=O)(CC1OC(CO)C(O)C1O)OCC (stereo not given) , is > 100 µM (inactive)

* * *

- System: CAKI-1
- protocol-text: NCI tumour cell line growth inhibition, 48 h
Calls of active or inactive are those of the source. No stated cut-off is given here; in the data, active = GI50 up to about 1.1 µM and inactive = higher.
Please reply with one of these outcomes: active, inactive

{"columns": ["compound", "tested-on", "class-name"],
 "data": [
  ["COc1ccc(/C=C(\\C2=NC(=O)CS2)c2nc3ccccc3[nH]2)cc1", "CAKI-1", "inactive"],
  ["C/C(=N\\NC(=O)N/N=C(\\C)c1ccccn1)c1ccccn1", "CAKI-1", "inactive"],
  ["COC(=O)c1cc2c3c(cc(N(C)C)c2[nH]1)N(C(=O)c1cc2cc(OC)c(OC)c(OC)c2[nH]1)CC3CCl (centres undefined)", "CAKI-1", "active"],
  ["CC1C(/C=C/c2ccoc2)ON2CCCC12 (centres undefined)", "CAKI-1", "inactive"],
  ["Cc1ccc(/C=C2\\Cc3c(C)cc(C)cc3C2=O)c(C(=O)O)c1", "CAKI-1", "inactive"]
]}

Qu. Hello, I am checking results. What call was entered for O=c1s[s+]([O-])c2ccccc12 (centres undefined) ?
Ans. inactive

Qu. Hello, I am checking results. What call was entered for C[C@H]1[C@H]2[C@H]3CC[C@@H]4[C@@]5(C)CC[C@H](O)C(C)(C)[C@@H]5CC[C@@]4(C)[C@]3(C)C[C@H](O)[C@@]2(C)C[C@H]2O[C@]21C ?
Ans. inactive

Qu. Hello, I am checking results. What call was entered for COc1cc(/C=C2\C(=O)N(c3ccc(Cl)cc3)C(c3ccccc3)S2(=O)=O)cc(OC)c1OC (centres undefined) ?
Ans. inactive

Qu. Hello, I am checking results. What call was entered for Nc1ccc(-c2nc3cc(F)ccc3s2)cc1 ?
Ans. inactive

* * *

Form field: GI50 (one value per entry).
- Tested on: PC-3
- protocol-text: NCI tumour cell line growth inhibition, 48 h
The source made the active and inactive calls. No stated cut-off is given here; in the data, active = GI50 up to about 1.1 µM and inactive = higher.

{"columns": ["compound", "GI50"],
 "data": [
  ["COC(=O)C1(OC(=O)Sc2ccccc2)CCN(C)CC1", "7.57 µM (inactive)"],
  ["CCOC(=O)Cc1c(C)c2ccc(OC(C)=O)c(OC(C)=O)c2oc1=O", "23.3 µM (inactive)"]
]}

Would you kindly look at the next entry?
GI50 recorded for this compound, O=C(Nc1ccn(C2CC(O)C(COC(c3ccccc3)(c3ccccc3)c3ccccc3)O2)c(=O)n1)c1ccccc1 (configuration not stated) , is 2.43 µM (inactive)

* * *

- Tested on: TK-10
- protocol-text: NCI tumour cell line growth inhibition, 48 h
The source made the active and inactive calls. No stated cut-off is given here; in the data, active = GI50 up to about 1.1 µM and inactive = higher.
Please reply with one of these outcomes: active, inactive

Qu. Hello, I am checking results. What call was entered for [N-]=[N+]=NC1(c2ccccc2)C(=O)c2cccc3c4ccccc4n(c23)C1=O (stereo unspecified) ?
Ans. inactive

Qu. Hello, I am checking results. What call was entered for CC(C(=O)O)c1ccc(-c2ccccc2)c(F)c1 (stereo unspecified) [FLURBIPROFEN] ?
Ans. inactive

Qu. Hello, I am checking results. What call was entered for Oc1ccc(-c2c3c(nc4c2CCc2ccc(Br)cc2-4)-c2cc(Br)ccc2CC3)cc1 ?
Ans. inactive

Qu. Hello, I am checking results. What call was entered for COc1ccc(Nc2nc3ccccc3nc2C(=O)O)cc1 ?
Ans. inactive

Qu. Hello, I am checking results. What call was entered for CC(=O)C1C(=O)C(=O)N(c2ccc(Cl)cc2C)C1=O (stereo unspecified) ?
Ans. inactive

Qu. Hello, I am checking results. What call was entered for S=C(N/N=C/c1ccccn1)N1CCCCCC1 ?
Ans. active

Qu. Hello, I am checking results. What call was entered for O=C(CC1(O)C(=O)Nc2c(Cl)cc(Cl)cc21)c1ccco1 (stereo unspecified) ?
Ans. inactive

Qu. Hello, I am checking results. What call was entered for COC(=O)Nc1nc2cc(S(=O)(=O)NC(CC(C)C)C(=O)OC)ccc2[nH]1 (stereo unspecified) ?
Ans. inactive

Qu. Hello, I am checking results. What call was entered for Cc1cn2c(/C=N/NC(=N)N)c(-c3ccc(Cl)c([N+](=O)[O-])c3)nc2s1 ?
Ans. inactive

Qu. Hello, I am checking results. What call was entered for COc1ccc(/C(Cl)=C(\C=O)c2ccc(OC)c(OC)c2)cc1 ?
Ans. inactive

Qu. Hello, I am checking results. What call was entered for CC1C(/C=C/c2ccoc2)ON2CCCC12 (stereo unspecified) ?
Ans. inactive

* * *

- System: SK-MEL-2
- protocol-text: NCI tumour cell line growth inhibition, 48 h
Active and inactive are the calls of the source. Cut-off read from the data, not from the text of the source: active = GI50 up to about 1.1 µM and inactive = higher.
Please reply with one of these outcomes: 1 (active), -1 (inactive)

{"columns": ["molecule", "tested-on", "class-name"],
 "data": [
  ["COc1cc(C2C(C(=O)Nc3ccccc3C)=C(C)NC(C)=C2C(=O)Nc2ccccc2C)ccc1O", "SK-MEL-2", -1],
  ["COc1ccc(Cc2cc(OC)c(OC)c(OC)c2)cc1O", "SK-MEL-2", 1],
  ["CCOC(=O)c1oc2cc3c(c4c2c1-c1ccccc1N4C)C=CC(C)(C)O3", "SK-MEL-2", -1],
  ["O=C1C(Nc2ccccc2)=CC2=NCCc3n[nH]c1c32", "SK-MEL-2", -1],
  ["C=CCCCCC1CCC2CCC(CCCCC=C)N12 (stereo unspecified)", "SK-MEL-2", -1]
]}

Please find the next molecule below.
Qu. Hello, I am checking results. What call was entered for OCC1COc2cc(Cl)c(Cl)cc2O1 (stereo unspecified) ?
Ans. -1

* * *

- Tested on: COLO 205
- protocol-text: NCI tumour cell line growth inhibition, 48 h
Calls of active or inactive are those of the source. Cut-off read from the data, not from the text of the source: active = GI50 up to about 1.1 µM and inactive = higher. Non-standard residues stand in square brackets, D forms with d. Residues, ends and D or L forms follow the SMILES beside them. *: point of attachment. hSer = N[CH](CCO)C(=O)O; Boc = CC(C)(C)OC(=O)*
Please reply with one of these outcomes: active, inactive

Use these answered entries as a reference point.
{"columns": ["compound", "class-name"],
 "data": [
  ["COc1ccc2c(c1)CCC(CN1CCN(CCOC(c3ccc(F)cc3)c3ccc(F)cc3)CC1)C2O (stereo not drawn)", "inactive"],
  ["C/C(=N\\NC(=O)c1ccncc1)c1sc(-n2nc(-c3ccccc3)cc2-c2ccccc2)nc1C", "inactive"],
  ["O=C(O)c1cc2c(cc1CC(Cc1ccc3c(c1)CCC3)C(=O)O)CCC2 (stereo not drawn)", "inactive"],
  ["CC1(C)CC(=O)C(=CN2C(=O)CNC2=S)C(=O)C1", "inactive"],
  ["CC(C)(C)OC(=O)NC(CSSCC(NC(=O)OC(C)(C)C)C(=O)O)C(=O)O (stereo not drawn)", "inactive"],
  ["CC(C)C1(O)C(=O)N(c2c(F)c(F)c(F)c(F)c2F)C(=S)N1CCSc1ccccc1 (stereo not drawn)", "inactive"],
  ["COc1ccc(-c2cc(O)c3cc4c(cc3n2)OCO4)c(OC)c1", "inactive"],
  ["Cc1c(N2C(=O)/C(=C/c3ccc(Cl)cc3)N=C2c2ccccc2)c(=O)n(-c2ccccc2)n1C", "inactive"],
  ["COC(=O)N1C=Cc2c(c(C)c3c([nH]c4ccccc43)c2C)C1C (stereo not drawn)", "inactive"],
  ["C[C@]12CCC(=O)C=C1CC[C@@H]1[C@@H]2[C@@H](O)C[C@@]2(C)[C@H]1CC[C@]2(O)C(=O)COC(=O)C1CCCC1", "inactive"]
]}

Qu. Hello, I am checking results. What call was entered for CCOc1ccccc1NC(=O)C1=C(C)NC(C)=C(C(=O)Nc2ccccc2OCC)C1c1cccc([N+](=O)[O-])c1 ?
Ans. inactive

Qu. Hello, I am checking results. What call was entered for CC(C)=CC1CCc2ccccc2N1S(=O)(=O)c1ccc(C)cc1 (stereo not drawn) ?
Ans. active

Qu. Hello, I am checking results. What call was entered for COCCC(NC(=O)C(CC(C)C)NC(=O)OC(C)(C)C)C(N)=O (stereo not drawn) (Boc-Leu-[hSer](Me)-NH2; configuration not given here) ?
Ans. inactive

Qu. Hello, I am checking results. What call was entered for COC(=O)Nc1nc2cc(S(=O)(=O)NC(CC(C)C)C(=O)OC)ccc2[nH]1 (stereo not drawn) ?
Ans. inactive

Qu. Hello, I am checking results. What call was entered for COc1ccc(/C=C2/SC(c3ccccc3)N(NC(=O)CCCCCCCCC(=O)NN3C(=O)/C(=C\c4ccc(OC)c(OC)c4)SC3c3ccccc3)C2=O)cc1OC (stereo not drawn) ?
Ans. inactive

Qu. Hello, I am checking results. What call was entered for COC(=O)[C@]12C3=C(O)C(=O)C[C@H]1OC[C@H]2C=CC3 ?
Ans. inactive

Qu. Hello, I am checking results. What call was entered for COc1cc(C2C(C(=O)Nc3ccccc3C)=C(C)NC(C)=C2C(=O)Nc2ccccc2C)ccc1O ?
Ans. inactive

Qu. Hello, I am checking results. What call was entered for Cc1ncc2c(n1)CCC1=C2OS(=O)(=O)CC1N(C)C (stereo not drawn) ?
Ans. inactive
